# Tested on: A549
# experimental details: NCI tumour cell line growth inhibition, 48 h
Activity calls are given as the source filed them. Cut-off read from the data, not from the text of the source: active = GI50 up to about 1.1 µM and inactive = higher.
Outcome (select one): active, inactive

Before answering, review these 10 worked examples.
# compound, answer label
records = [
    ("O=c1nc(NC(c2ccccc2)(c2ccccc2)c2ccccc2)ccn1CCNCCn1ccc(NC(c2ccccc2)(c2ccccc2)c2ccccc2)nc1=O", "inactive"),
    ("S=C(Nc1ccccn1)Nc1ccccc1Cl", "inactive"),
    ("COc1ccc2nc3ccccc3c(NCCN(C)CCCl)c2c1", "active"),
    ("COc1ccc(/C=N/N=C(\\N)NO)cc1F", "inactive"),
    ("CCOC(=O)N1CCC(=O)C(CNC23CC4CC(CC(C4)C2)C3)C1 (stereo unspecified)", "inactive"),
    ("C=CC(OC(C)=O)c1ccc(OC(C)=O)cc1 (stereo unspecified)", "inactive"),
    ("COc1cc(/C=C/C(=O)O)ccc1OS(=O)(=O)O", "inactive"),
    ("CC1CC[C@]2(C(=O)O)CCC3(C)C(=CCC4[C@@]5(C)CC[C@H](OS(=O)(=O)c6ccccc6)C(C)(C)C5CC[C@]43C)[C@@H]2[C@H]1C (stereo partly specified)", "inactive"),
    ("COc1cccc2cc(C(=O)Nc3ccccn3)c(=N)oc12", "inactive"),
    ("c1ccc2c3c([nH]c2c1)C1(CCCCC1)c1c([nH]c2ccccc12)C31CCCCC1", "inactive"),
]

In this assay, the call recorded for `O=c1c2cc3ccccc3n2c(=O)c2cc3ccccc3n12` was what?
inactive

In this assay, the call recorded for `CC(=O)Oc1ccc(/C=C/C(=O)OCCCOC(=O)/C=C/c2ccc(OC(C)=O)c(OC(C)=O)c2)cc1OC(C)=O` was what?
inactive
